Biological target: glutathione S-transferase (GST-GSH binding)
Experiment: GST–glutathione interaction disruption – biochemical, multiplex beads, flow cytometry, HPSMTB buffer, profiling panel (AID 1324);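 also: glutathione beads loaded with GST-green fluorescent protein and no fluorescent Bim peptide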
Conditions: multiplex bead flow cytometry, MCF
Active and inactive are the calls of the source. No rule for the calls is given here.
Please state which outcome applies, choosing from t for active, f for inactive

Completed entries (count: 2):
>>> assigned_label("CCN(CC)c1ccc(NC2=C(Cl)C(=O)c3ccccc3C2=O)cc1")
"f"
>>> assigned_label("CCOCCCNc1nc(=S)[nH]c2cc(OC)c(OC)cc12")
"f"

Now, please, on to the next molecule.
Problem: Recorded call for O=c1c2c(-c3ccccc3)csc2nc2c3ccccc3c(NCCN3CCOCC3)nn12 ?
Result: t
